target: MK2 enzyme (Homo sapiens); construct: MK2 enzyme (active enzyme (peptide 46-end (Millipore))); purchased Millipore; experiment: MK2 enzyme activity, IMAP fluorescence polarization assay; format: biochemical; conditions: Table 2, comparison compound of Formula (XVI), spiro ring without amine; MK2 IMAP assay; read-out: pEC50, Formula (XVI) (converted)
Sequence (P49137 46-400 limits assumed): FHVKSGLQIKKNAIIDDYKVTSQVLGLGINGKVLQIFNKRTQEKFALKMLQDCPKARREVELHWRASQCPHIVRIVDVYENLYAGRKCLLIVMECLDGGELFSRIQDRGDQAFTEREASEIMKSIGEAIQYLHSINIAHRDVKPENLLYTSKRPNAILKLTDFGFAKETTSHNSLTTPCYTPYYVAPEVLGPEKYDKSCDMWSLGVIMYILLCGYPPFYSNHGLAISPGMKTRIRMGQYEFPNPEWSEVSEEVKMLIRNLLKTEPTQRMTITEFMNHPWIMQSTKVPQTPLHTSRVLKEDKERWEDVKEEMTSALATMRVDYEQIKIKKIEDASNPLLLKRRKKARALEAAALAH
Quick reference for EC50 among some compounds
Record the value in nM, omitting the unit from your answer.

Previously resolved entries follow.
Kindly indicate its recorded EC50. Item: O=C1NCC2(CCCC2)c2[nH]c(-c3ccnc(-c4cnc5ccccc5c4)n3)cc21 [17_3 Formula (XVI)]
251

Kindly indicate its recorded EC50. Item: O=C1NCC2(CCOCC2)c2[nH]c(-c3ccnc(-c4cnc5ccccc5c4)n3)cc21 [17_2 Formula (XVI)]
316

Kindly indicate its recorded EC50. Item: O=C1NCC2(CCCC2)c2[nH]c(-c3ccnc(-c4cccc(F)c4)n3)cc21 [17_4 Formula (XVI)]
316

Further cases:
Kindly indicate its recorded EC50. Item: O=C1NCC2(CCOCC2)c2[nH]c(-c3ccnc(-c4ccc5c(c4)OCO5)n3)cc21 [17_1 Formula (XVI)]
794
